Experiment: pH-solubility of linsitinib free base and selected salts (pH 1.5 to 6.5, overnight equilibration, HPLC)
Assay type: physicochemical
Details: target pH 3.0; after overnight equilibration
Procedure: The pH-solubility of selected salts (Phosphate 1, L-Malate 1, Esylate 1, and Esylate 2) was evaluated and compared with linsitinib free base. […] If saturation was achieved, the pH of the solution was measured and adjusted to the target pH and additional material was added if needed. […] The final pH of the solution was measured, the solids were filtered and selected samples were analyzed by PXRD. The concentration of linsitinib in the filtrate was quantitated by HPLC (diluted as needed). […]
QUANTITY_NAME: Final pH
Lab note: record just the number, no unit beside it.

Worked examples, 4 compounds total:
COMPOUND	READING
C[C@]1(O)C[C@@H](c2nc(-c3ccc4ccc(-c5ccccc5)nc4c3)c3c(N)nccn32)C1 [Linsitinib free base, reference compound]	2.76
C[C@]1(O)C[C@@H](c2nc(-c3ccc4ccc(-c5ccccc5)nc4c3)c3c(N)nccn32)C1.O=C(O)C[C@H](O)C(=O)O [L-Malate 1]	2.80
CCS(=O)(=O)O.C[C@]1(O)C[C@@H](c2nc(-c3ccc4ccc(-c5ccccc5)nc4c3)c3c(N)nccn32)C1 [Esylate 2]	3.04
CCS(=O)(=O)O.C[C@]1(O)C[C@@H](c2nc(-c3ccc4ccc(-c5ccccc5)nc4c3)c3c(N)nccn32)C1 [Esylate 1]	3.04

Next compound, Final pH to be filled in.
Request: Please supply the value of reported Final pH for the item C[C@]1(O)C[C@@H](c2nc(-c3ccc4ccc(-c5ccccc5)nc4c3)c3c(N)nccn32)C1.O=P(O)(O)O [Phosphate 1]
Response: 2.58
